For each entry below, report its inhibition at 100 µM value.
molecular target: cAMP-dependent protein kinase (PKA) (Homo sapiens, UniProt P17612); construct: purchased Upstate Biotechnologie; assay: PKA kinase inhibition (Upstate test kit); assay type: biochemical; details: substance concentration 100 μM; ATP 50 μM
Report the value in % with no unit label.

Task: Endpoint output: inhibition at 100 µM of `Cc1c(-c2ccncc2)[nH]c2ccc(C(=O)N[C@@H](CSc3ccccc3)C(=O)O)cc12` . Value?
Result: 55

Task: Endpoint output: inhibition at 100 µM of `O=C(N[C@@H](CSc1ccccc1)C(=O)O)c1ccc2[nH]c(-c3ccncc3)cc2c1` . Value?
Result: 42

Task: Endpoint output: inhibition at 100 µM of `NC(=O)[C@H](CCc1ccccc1)NC(=O)c1ccc2[nH]c(-c3ccncc3)cc2c1` . Value?
Result: 24

Task: Endpoint output: inhibition at 100 µM of `Cc1c(-c2ccncc2)[nH]c2ccc(C(=O)N[C@@H](CSc3ccccc3)C(N)=O)cc12` . Value?
Result: 60

Task: Endpoint output: inhibition at 100 µM of `CCN(C[C@H](NC(=O)c1ccc2[nH]c(-c3ccncc3)cc2c1)C(N)=O)c1ccccc1` . Value?
Result: 0

Task: Endpoint output: inhibition at 100 µM of NC(=O)[C@H](CSc1ccccc1)NC(=O)c1ccc2[nH]c(-c3ccncc3)cc2c1 (stereo in doubt) . Value?
Result: 35
